pKi: −log10 of the molar value.
Literature compilation of pKi measurements on Serine/threonine-protein kinase PLK1 (Homo sapiens, UniProt P53350).

Prompt: Report pKi for `COc1cc(C(=O)NCC2CCCCC2)ccc1Nc1ncc2c(n1)N(C1CCCC1)CC(C)(C)C(=O)N2C` tested on Serine/threonine-protein kinase PLK1 (Homo sapiens, UniProt P53350).
Response: > 8.00

Prompt: Report pKi for `COc1cc(C(=O)Nc2cnccn2)ccc1Nc1ncc2c(n1)N(C1CCCC1)CC(C)(C)C(=O)N2C` tested on Serine/threonine-protein kinase PLK1 (Homo sapiens, UniProt P53350).
Response: > 8.00

Prompt: Report pKi for `C[C@@H](Nc1ncc(C#N)c(-c2c[nH]c3ncc(C(F)(F)F)cc23)n1)C1CCN(C(=O)[C@@H](N)CCCN)CC1` tested on Serine/threonine-protein kinase PLK1 (Homo sapiens, UniProt P53350).
Response: > 8.52

Prompt: Report pKi for `CCN1CCN(c2ccc([C@@H](C)Nc3ncc(C#N)c(-c4c[nH]c5ncc(C(F)(F)F)cc45)n3)cn2)CC1` tested on Serine/threonine-protein kinase PLK1 (Homo sapiens, UniProt P53350).
Response: > 8.52

Prompt: Report pKi for `CNC(=O)c1ccc(Nc2ncc3c(n2)N(C2CCCC2)CC(C)(C)C(=O)N3C)c(OC(C)C)c1` tested on Serine/threonine-protein kinase PLK1 (Homo sapiens, UniProt P53350).
Response: 7.00 to 8.00

Prompt: Report pKi for `N#Cc1cnc(NCc2ccccc2Cl)nc1-c1c[nH]c2ncc(C(F)(F)F)cc12` tested on Serine/threonine-protein kinase PLK1 (Homo sapiens, UniProt P53350).
Response: < 7.40

Prompt: Report pKi for `CC(C)(C)[C@@H](CO)Nc1ncc(C#N)c(-c2c[nH]c3ncc(C(F)(F)F)cc23)n1` tested on Serine/threonine-protein kinase PLK1 (Homo sapiens, UniProt P53350).
Response: > 8.52

Prompt: Report pKi for `C[C@@H](Nc1ncc(C#N)c(-c2c[nH]c3ncc(C(F)(F)F)cc23)n1)C1CCN(C(=O)C2CNC2)CC1` tested on Serine/threonine-protein kinase PLK1 (Homo sapiens, UniProt P53350).
Response: > 8.52

Prompt: Report pKi for `Cc1ccc(F)c(NC(=O)N2Cc3c(NC(=O)C4([Si](C)(C)C)CCC4)n[nH]c3C2(C)C)c1` tested on Serine/threonine-protein kinase PLK1 (Homo sapiens, UniProt P53350).
Response: ≤ 5.30

Prompt: Report pKi for `COc1cc(C(=O)NCCN2CCC2)ccc1Nc1ncc2c(n1)N(C1CCCC1)CC(C)(C)C(=O)N2C` tested on Serine/threonine-protein kinase PLK1 (Homo sapiens, UniProt P53350).
Response: > 8.00

Prompt: Report pKi for `CC1(C)c2[nH]nc(NC(=O)C3([Si](C)(C)C)CC3)c2CN1C(=O)Nc1c(Cl)cccc1Cl` tested on Serine/threonine-protein kinase PLK1 (Homo sapiens, UniProt P53350).
Response: ≤ 5.30

Prompt: Report pKi for `C[C@@H](Nc1ncc(C#N)c(-c2c[nH]c3ncc(C(F)(F)F)cc23)n1)[C@H]1CC[C@@H](NC(=O)CO)CC1` tested on Serine/threonine-protein kinase PLK1 (Homo sapiens, UniProt P53350).
Response: > 8.52

Prompt: Report pKi for `C[C@@H](Nc1ncc(C#N)c(-c2c[nH]c3ncc(C(F)(F)F)cc23)n1)C1CCN(C(=O)[C@H](O)C(F)(F)F)CC1` tested on Serine/threonine-protein kinase PLK1 (Homo sapiens, UniProt P53350).
Response: > 8.52

Prompt: Report pKi for CC(Nc1ncc(C#N)c(-c2c[nH]c3ncc(C(F)(F)F)cc23)n1)c1ccc(N2CC(O)C2)nc1 (centres unmarked) tested on Serine/threonine-protein kinase PLK1 (Homo sapiens, UniProt P53350).
Response: > 8.52
